System: Canis familiaris
Experiment: Oral bioavailability in fasted Beagle dog assessed as ertapenem level at 10 mg/kg dosed through intraduodenal route by LC-MS/MS method
Format: ADME, organism-based, Canis lupus familiaris
Details: in vivo

{"columns": ["Sample smiles", "F, %"],
 "data": [
  ["CCOC(=O)C1=C(S[C@@H]2CN[C@H](C(=O)Nc3cccc(C(=O)OCC)c3)C2)[C@H](C)[C@@H]2[C@@H]([C@@H](C)O)C(=O)N12", 18.1],
  ["CCOC(=O)C1=C(S[C@@H]2CN[C@H](C(=O)Nc3cccc(C(=O)OCC)c3)C2)[C@H](C)[C@@H]2[C@@H]([C@@H](C)OC(=O)CC)C(=O)N12", 12.6],
  ["C[C@@H](O)[C@H]1C(=O)N2C(C(=O)OCC(F)(F)F)=C(S[C@@H]3CN[C@H](C(=O)Nc4cccc(C(=O)OCC(F)(F)F)c4)C3)[C@H](C)[C@H]12", 10.2],
  ["CC(=O)O[C@H](C)[C@H]1C(=O)N2C3=C(S[C@@H]4CN[C@@H](C4)C(=O)Nc4cccc(c4)C(=O)OCOCOC3=O)[C@H](C)[C@H]12", 13.4],
  ["C[C@@H](O)[C@H]1C(=O)N2C(C(=O)OCc3oc(=O)oc3C(C)(C)C)=C(S[C@@H]3CN[C@H](C(=O)Nc4cccc(C(=O)OCc5oc(=O)oc5C(C)(C)C)c4)C3)[C@H](C)[C@H]12", 0.4],
  ["CCOC(=O)C1=C(S[C@@H]2CN[C@H](C(=O)Nc3cccc(C(=O)OCC)c3)C2)[C@H](C)[C@@H]2[C@@H]([C@@H](C)OC(C)=O)C(=O)N12", 15.4],
  ["CCCOC(=O)C1=C(S[C@@H]2CN[C@H](C(=O)Nc3cccc(C(=O)OCCC)c3)C2)[C@H](C)[C@@H]2[C@@H]([C@@H](C)O)C(=O)N12", 9.8],
  ["CCOC(=O)C1=C(S[C@H]2C[C@@H](C(=O)Nc3cccc(C(=O)OCC)c3)N(C(=O)OCc3oc(=O)oc3C)C2)[C@H](C)[C@@H]2[C@@H]([C@@H](C)O)C(=O)N12", 6.4]
]}

====

Assay: AUC (0 to 8 hrs) in fasted Sprague-Dawley rat at 10 mg/kg dosed through intraduodenal route by LC-MS/MS method
Type: ADME, organism-based, Plasma
Set-up: time < 8 hr, dose 10 mg/kg, route intraduodenal
Conditions: Sprague-Dawley, plasma

{"columns": ["Sample smiles", "AUC(0-t) at 8 h / µM·h"],
 "data": [
  ["CC(C)OC(=O)C1=C(S[C@@H]2CN[C@H](C(=O)Nc3cccc(C(=O)OC(C)C)c3)C2)[C@H](C)[C@@H]2[C@@H]([C@@H](C)O)C(=O)N12", 0.09]
]}

====

Assay: Stability in human plasma assessed as compound remaining at 50 uM at 37 degC after 60 mins by LC-MS/MS method
Format: ADME, cell-free
Details: read-out: Stability
Label scheme for remaining at 1 h, 50 µM: bottom (below 8%), middle (8% to below 30%), top (30% or more)

{"columns": ["Sample smiles", "Qualitative label"],
 "data": [
  ["CCCCCCCCCCCCCCCCOC(=O)C1=C(S[C@@H]2CN[C@H](C(=O)Nc3cccc(C(=O)OCCCCCCCCCCCCCCCC)c3)C2)[C@H](C)[C@@H]2[C@@H]([C@@H](C)O)C(=O)N12", "top"],
  ["CC(=O)OCOC(=O)C1=C(S[C@@H]2CN[C@H](C(=O)Nc3cccc(C(=O)OCOC(C)=O)c3)C2)[C@H](C)[C@@H]2[C@@H]([C@@H](C)O)C(=O)N12", "bottom"],
  ["C[C@@H](O)[C@H]1C(=O)N2C3=C(S[C@@H]4CN[C@@H](C4)C(=O)Nc4cccc(c4)C(=O)OCc4oc(=O)oc4COC3=O)[C@H](C)[C@H]12", "bottom"],
  ["CC(C)C(=O)OCOC(=O)c1cccc(NC(=O)[C@@H]2C[C@H](SC3=C(C(=O)O)N4C(=O)[C@H]([C@@H](C)O)[C@H]4[C@H]3C)CN2)c1", "middle"],
  ["CCOC(=O)C1=C(S[C@H]2C[C@@H](C(=O)Nc3cccc(C(=O)OCC)c3)N(Cc3oc(=O)oc3C)C2)[C@H](C)[C@@H]2[C@@H]([C@@H](C)O)C(=O)N12", "middle"],
  ["CCCCCCCCOC(=O)C1=C(S[C@@H]2CN[C@H](C(=O)Nc3cccc(C(=O)OCCCCCCCC)c3)C2)[C@H](C)[C@@H]2[C@@H]([C@@H](C)O)C(=O)N12", "top"],
  ["CCOC(=O)OCOC(=O)C1=C(S[C@@H]2CN[C@H](C(=O)Nc3cccc(C(=O)OCOC(=O)OCC)c3)C2)[C@H](C)[C@@H]2[C@@H]([C@@H](C)O)C(=O)N12", "bottom"],
  ["CCCCOC(=O)C1=C(S[C@@H]2CN[C@H](C(=O)Nc3cccc(C(=O)OCCCC)c3)C2)[C@H](C)[C@@H]2[C@@H]([C@@H](C)O)C(=O)N12", "bottom"],
  ["C[C@@H](O)[C@H]1C(=O)N2C(C(=O)OCOC(=O)C3CCCCC3)=C(S[C@@H]3CN[C@H](C(=O)Nc4cccc(C(=O)O)c4)C3)[C@H](C)[C@H]12", "middle"],
  ["CCOC(=O)C1=C(S[C@H]2C[C@@H](C(=O)Nc3cccc(C(=O)OCC)c3)N(C(=O)OCc3oc(=O)oc3C)C2)[C@H](C)[C@@H]2[C@@H]([C@@H](C)O)C(=O)N12", "middle"],
  ["CC(C)OC(=O)C1=C(S[C@@H]2CN[C@H](C(=O)Nc3cccc(C(=O)OC(C)C)c3)C2)[C@H](C)[C@@H]2[C@@H]([C@@H](C)O)C(=O)N12", "middle"],
  ["CC(C)OC(=O)OCOC(=O)C1=C(S[C@@H]2CN[C@H](C(=O)Nc3cccc(C(=O)OCOC(=O)OC(C)C)c3)C2)[C@H](C)[C@@H]2[C@@H]([C@@H](C)O)C(=O)N12", "middle"],
  ["C[C@@H](O)[C@H]1C(=O)N2C(C(=O)OCOC(=O)OC3CCCCC3)=C(S[C@@H]3CN[C@H](C(=O)Nc4cccc(C(=O)OCOC(=O)OC5CCCCC5)c4)C3)[C@H](C)[C@H]12", "top"],
  ["C[C@@H](O)[C@H]1C(=O)N2C(C(=O)[O-])=C(S[C@@H]3CN[C@H](C(=O)Nc4cccc(C(=O)O)c4)C3)[C@H](C)[C@H]12.O.[Na+]", "top"],
  ["C[C@@H](O)[C@H]1C(=O)N2C(C(=O)OCC(F)(F)F)=C(S[C@@H]3CN[C@H](C(=O)Nc4cccc(C(=O)OCC(F)(F)F)c4)C3)[C@H](C)[C@H]12", "bottom"],
  ["C[C@@H](O)[C@H]1C(=O)N2C(C(=O)OCOC(=O)C(C)(C)C)=C(S[C@@H]3CN[C@H](C(=O)Nc4cccc(C(=O)O)c4)C3)[C@H](C)[C@H]12", "top"]
]}
